The following binders are shown together with reported IC50 (nM), STAT3-luc reporter gene assay values.
measurementTarget: human IL-6 (mature hIL-6) (human, UniProt P05231 30-212)
Sequence (P05231 30-212): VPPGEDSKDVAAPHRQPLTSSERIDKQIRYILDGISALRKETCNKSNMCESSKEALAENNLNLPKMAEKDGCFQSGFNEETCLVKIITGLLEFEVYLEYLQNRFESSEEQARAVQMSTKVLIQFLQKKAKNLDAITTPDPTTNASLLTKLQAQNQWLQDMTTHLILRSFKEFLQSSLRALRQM
testDetails: cell-based or functional assay
Give the value, in units of nM, as a plain number.

[
  {
    "binder": "Polypeptide_52 (VHH) VHH: EVQLVESGGGLVQPGGSLKLSCTTSGRTFSEYAVGWFRQAPGKEREFVADIGEQAENTWYAESVLGRFTISRDDAKNTVYLEMDGLKPEDTAVYYCAADKYGVGGNAQGYYDSWGQGTQVTVSS",
    "IC50 (nM), STAT3-luc reporter gene assay": 0.055
  }
]

Inquiry: What value of measured IC50 (nM), STAT3-luc reporter gene assay is listed for Polypeptide_29 (VHH, VHH_1.6 with C-terminal His tag extension E1; also called [VHH_1.6]-E1) VHH: EVQLVESGGGLVQPGGSLKLSCTTSGRRFSEYAVGWFRQAPGKEREFVADIGEQAENTWYAESVLGRFTISRDDAKNTVYLEMDGLKPEDTAVYYCAADKYGVGGNAQGYYDSWGQGTQVTVSS ?
Reply text: 0.034
